These data points were gathered from patent US8129398B2.

Target: HIV-integrase (Human immunodeficiency virus type 1 group M subtype B)
Construct: Recombinant integrase (0.26 ng) was incubated with the beads
Assay: HIV-Integrase Inhibition Activity (SPA bead integration assay with P33 labeled target DNA)
Type: biochemical
Conditions: recombinant integrase, class symbols; read-out: in vitro activity
Readout label: IC50

Smiles: O=C(NCc1ccc(F)cc1)c1nc2n(c(=O)c1O)CC1CCC2(Nc2ncc[nH]2)CC1
Result: < 10 nM

Qu. Recorded IC50 for "O=C(NC(=S)NC12CCC(CC1)Cn1c2nc(C(=O)NCc2ccc(F)cc2)c(O)c1=O)c1ccccc1" , please?
Ans. 10 to 100 nM

Qu. Dear colleague, I am looking for the recorded IC50 of the following molecule: "CO[C@H]1C[C@@H](C(=O)NC23CCC(CC2)Cn2c3nc(C(=O)NCc3ccc(F)cc3)c(O)c2=O)N(C(C)=O)C1"
Ans. < 10 nM

Qu. Item under review: "CN(C(=O)C(=O)N1CCCC1)C12CCC(CC1)Cn1c2nc(C(=O)NCc2ccc(F)cc2)c(O)c1=O" . Reported IC50?
Ans. < 10 nM
